Study System: 5-HT2A (Homo sapiens)
Sequence (P28223 whole entry): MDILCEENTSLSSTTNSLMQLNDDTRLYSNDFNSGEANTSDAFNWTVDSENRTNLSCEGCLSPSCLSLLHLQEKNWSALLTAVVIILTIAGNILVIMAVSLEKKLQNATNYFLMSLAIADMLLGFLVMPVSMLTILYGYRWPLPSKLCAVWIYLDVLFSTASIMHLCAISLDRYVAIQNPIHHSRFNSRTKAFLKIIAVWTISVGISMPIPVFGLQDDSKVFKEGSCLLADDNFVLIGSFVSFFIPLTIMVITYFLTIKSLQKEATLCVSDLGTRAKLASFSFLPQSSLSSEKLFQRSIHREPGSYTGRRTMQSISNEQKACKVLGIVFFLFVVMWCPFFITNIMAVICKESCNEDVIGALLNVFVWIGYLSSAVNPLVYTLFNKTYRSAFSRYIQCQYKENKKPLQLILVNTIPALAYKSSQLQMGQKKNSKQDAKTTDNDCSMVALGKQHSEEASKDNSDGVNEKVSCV
Assay Summary: cell-based
Set-up: expressed in transfected cells; host or cells: HEK293T, transient
Protocol Conditions: BRET, mean ± SEM
Recorded 5-HT2A Gq Emax (% 5-HT) for the following compounds
Just the number please, in % 5-HT, no unit attached.

Would you please look over these solved cases?
- Compound: "COc1cc(CCNCc2ccccc2OC)c(OC)cc1C [25D-NBOMe (26)]"
  Recorded Measurement: 93.0
- Compound: "COc1cc(CCNCc2ccccc2OC)c(OC)cc1I [Compound 25I-NBOMe, reference compound]"
  Recorded Measurement: 99.8
- Compound: "COc1cc(CCN)c(OC)cc1Br [Compound 2C-B, reference compound]"
  Recorded Measurement: 100.8
- Compound: "COc1cc(CCN)c(OC)cc1I [Compound 2C-I, reference compound]"
  Recorded Measurement: 93.4

Attention now shifts to the item below.
Can you look up the measured 5-HT2A Gq Emax (% 5-HT) of CN(C)CCc1c[nH]c2ccccc12 [DMT, reference compound] for me? 76

Recorded values, source patent US20240254087A1.
